Tested on: U2OS
test-method-notes: Incucyte cell viability with U2OS; note: filed as whole numbers so only -1 and 0 and 1 occur
Type: toxicity, cell-based
experimental-setup: human, 24 h, 10 µM, compound concentration 10 uM, replicate number 1, timepoint 24 hours
Record form. Attribute: Growth Rate. Fill in for each entry.
Numbers only.

- compound: "COc1cc2ncnc(Nc3ccc(F)c(Cl)c3)c2cc1NC(=O)/C=C/CN1CCCCC1 [DACOMITINIB ANHYDROUS]"
  Growth Rate: 0

Each compound below has a reported value. Please supply its Growth Rate.
1. CCCCN(CCCC)C(=O)CN1C[C@H](c2cc(OC)c3c(c2)OCO3)[C@@H](C(=O)O)[C@@H]1CC(C)(C)CCC.Cc1ccc(S(=O)(=O)O)cc1
2. Cc1c(C(=O)O)cc(-c2ccc(C3CCNCC3)cc2)c2ccc(-c3ccc(C(F)(F)F)cc3)cc12.Cl
3. CO[C@@H](C)c1c(Nc2ccc([C@@H](N(C)C(=O)C3CCS(=O)(=O)CC3)C(F)(F)F)cc2)cnc2cc(Cl)nn12 [NVS-MALT1-C]

A:
1: 1; 2: 0; 3: 1

====

Test system: HEK-293T
test-method-notes: Multiplex assay against HEK293T
Format: toxicity, cell-based
experimental-setup: human, 24 h, 1 µM, compound concentration 1 uM, replicate 1
Record form. Attribute: Population Apoptotic (%). Fill in for each entry.
Numbers only, in %.

Below: 5 molecules and their reported Population Apoptotic (%).
- molecule: "CCNc1cc(N[C@H]2CC[C@H](O)CC2)nc(Nc2ccc3c(ccn3Cc3ccccc3)c2)n1"
  units-of-measure: "%"
  Population Apoptotic (%): 20
- molecule: "CCOc1cc(C(=O)N2CCC(N3CCN(C)CC3)CC2)ccc1Nc1ncc2c(n1)N(C1CCCC1)c1ccccc1C(=O)N2C"
  units-of-measure: "%"
  Population Apoptotic (%): 63
- molecule: "CCOC(=O)c1c(C)[nH]c2ccc3c(c12)CN1CCc2cc(OC)ccc2C1O3 (configuration not stated)"
  units-of-measure: "%"
  Population Apoptotic (%): 57
- molecule: "CCCS(=O)(=O)Nc1ccc(F)c(C(=O)c2c[nH]c3ncc(Cl)cc23)c1F"
  units-of-measure: "%"
  Population Apoptotic (%): 28
- molecule: "Cc1cc(C)c(S(=O)(=O)N(Cc2ccc(-c3cccc(S(C)(=O)=O)c3)cc2)Cc2ccc(C(F)(F)F)o2)c(C)c1"
  units-of-measure: "%"
  Population Apoptotic (%): 43

Each molecule below has a reported value. Please supply its Population Apoptotic (%).
1. Cc1ccc2nc(NCCN)c3ncc(C)n3c2c1.O=C(O)C(F)(F)F.O=C(O)C(F)(F)F
2. Cc1ccc(C(=O)Nc2cccc(C(F)(F)F)c2)cc1Nc1nc(-c2cccnc2)nc2c1cnn2C
3. CCOc1cc2ncc(C#N)c(Nc3ccc(OCc4ccccn4)c(Cl)c3)c2cc1NC(=O)/C=C/CN(C)C
4. CNc1cc(Oc2cc(C(=O)Nc3cc(N4CCN(C)CC4)cc(C(F)(F)F)c3)ccc2C)ncn1

A:
1: 35; 2: 64; 3: 55; 4: 73

====

Test system: U2OS
test-method-notes: Incucyte cell viability with U2OS; note: filed as whole numbers so only -1 and 0 and 1 occur
Assay type: toxicity, cell-based
experimental-setup: human, 12 h, 10 µM, compound concentration 10 uM, replicate number 1, timepoint 12 hours
readout-type: Growth Rate
One number for each entry.

Below: 5 molecules and their reported Growth Rate.
- molecule: "CN([C@@H](Cc1ccc(OS(=O)(=O)c2cccc3cnccc23)cc1)C(=O)N1CCN(c2ccccc2)CC1)S(=O)(=O)c1cccc2cnccc12"
  quantitative-result: 1
- molecule: "COc1cc(OC)cc(-c2noc(N3CCN(C)C4(CCN(c5ccnc(C)c5)CC4)C3)n2)c1"
  quantitative-result: 0
- molecule: "COc1ccc(-c2ccc3c(N4CCOCC4)nc(N4C[C@@H](C)O[C@@H](C)C4)nc3n2)cc1CO"
  quantitative-result: 1
- molecule: "O=C(Nc1cccnn1)N1CCC(=Cc2cccc(Oc3ccc(C(F)(F)F)cn3)c2)CC1"
  quantitative-result: 0
- molecule: "CCCS(=O)(=O)Nc1ccc(F)c(C(=O)c2c[nH]c3ncc(Cl)cc23)c1F"
  quantitative-result: 0

Each molecule below has a reported value. Please supply its Growth Rate.
1. CCCCN(CCCC)C(=O)CN1C[C@H](c2cc(OC)c3c(c2)OCO3)[C@@H](C(=O)O)[C@@H]1CC(C)(C)CCC.Cc1ccc(S(=O)(=O)O)cc1
2. CN(C)[C@H]1CCN(c2cc(-c3ccccc3)nc3ccnn23)C1 [(S)-ZINC-3573]

A:
1. 1
2. 0

====

Test system: Fibroblast
test-method-notes: Multiplex assay against human fibroblast
Assay type: toxicity, cell-based
experimental-setup: 24 h, 1 µM, compound concentration 1 uM, replicate 1
readout-type: Population Normal (%)
Numbers only, in %.

Below: 7 molecules and their reported Population Normal (%).
- molecule: "CNc1cc(Oc2cc(C(=O)Nc3cc(N4CCN(C)CC4)cc(C(F)(F)F)c3)ccc2C)ncn1"
  units-of-measure: "%"
  quantitative-result: 88
- molecule: "COc1cc(N2CCN(C)CC2)ccc1Nc1ncc2c(n1)N(C)c1ccccc1C(=O)N2C"
  units-of-measure: "%"
  quantitative-result: 89
- molecule: "O=C1N/C(=N/c2ccccc2F)S/C1=C\\c1ccc(C(=O)O)cc1"
  units-of-measure: "%"
  quantitative-result: 85
- molecule: "Cc1ccc(C(=O)Nc2cccc(C(F)(F)F)c2)cc1Nc1nc(-c2cccnc2)nc2c1cnn2C"
  units-of-measure: "%"
  quantitative-result: 85
- molecule: "CCc1cccc(CC)c1NC(=O)c1nn(C)c2c1CCc1cnc(Nc3ccc(C(=O)NC4CCN(C)CC4)cc3OC(F)(F)F)nc1-2"
  units-of-measure: "%"
  quantitative-result: 88
- molecule: "CN1C2CCC1CC(OC(c1ccc(F)cc1)c1ccc(F)cc1)C2.Cl (stereo not drawn)"
  units-of-measure: "%"
  quantitative-result: 86
- molecule: "O=C(Nc1ccc(-n2nc(-c3cccnc3)cc2C(F)(F)F)cn1)c1ccc(-c2ccccc2)c(F)c1"
  units-of-measure: "%"
  quantitative-result: 85

Q: Identify measured Population Normal (%) associated with Cn1nc(C(F)(F)F)cc1-c1cnc(N2CCc3cc(S(=O)(=O)Nc4c(F)cc(Cl)cc4F)cc(N4CCCC4=O)c32)nc1
A: 90

====

Test system: Fibroblast
test-method-notes: Multiplex assay against human fibroblast
Format: toxicity, cell-based
experimental-setup: 12 h, 1 µM, compound concentration 1 uM, replicate 1
Record form. Attribute: Population Hoechst High Intensity Objects (%). Fill in for each entry.
Answers are plain numbers, in %.

Below: 4 compounds and their reported Population Hoechst High Intensity Objects (%).
- smiles-repr: "COc1ccc(-c2ccc3c(N4CCOCC4)nc(N4C[C@@H](C)O[C@@H](C)C4)nc3n2)cc1CO"
  quantitative-result: 16
- smiles-repr: "Cc1ccc(C(=O)Nc2cccc(C(F)(F)F)c2)cc1Nc1nc(-c2cccnc2)nc2c1cnn2C"
  quantitative-result: 10
- smiles-repr: "COc1cccc2cc(-c3nc([C@H]4CC[C@H](C(=O)O)CC4)n4ncnc(N)c34)[nH]c12"
  quantitative-result: 28
- smiles-repr: "S=C(NCCCc1c[nH]cn1)NCCCN(Cc1ccc(Cl)c(Cl)c1)c1ccc(Br)cn1"
  quantitative-result: 13

Q: Identify measured Population Hoechst High Intensity Objects (%) associated with COC(=N)c1nc2ccc3ncnc(Nc4ccc(OC)cc4F)c3c2s1
A: 17

====

System: Fibroblast
test-method-notes: Multiplex assay against human fibroblast
Format: toxicity, cell-based
experimental-setup: 24 h, 10 µM, compound concentration 10 uM, replicate 2
readout-type: Population Mitochondria Different-Phenotype (%)
Give bare numbers, in %.

Below: 3 compounds and their reported Population Mitochondria Different-Phenotype (%).
- compound: "COc1cc2ncnc(Nc3ccc(F)c(Cl)c3)c2cc1NC(=O)/C=C/CN1CCCCC1 [DACOMITINIB ANHYDROUS]"
  system-tested: "Fibroblast"
  units-of-measure: "%"
  quantitative-result: 13
- compound: "COCC(=O)NC/C=C/c1ccc2ncnc(Nc3ccc(Oc4ccc(C)nc4)c(C)c3)c2c1 [CP-724714]"
  system-tested: "Fibroblast"
  units-of-measure: "%"
  quantitative-result: 96
- compound: "CCCS(=O)(=O)c1nc(NC2CC2)cc(-c2ccc3c(ccn3C3CC(C)(C)NC(C)(C)C3)c2)n1"
  system-tested: "Fibroblast"
  units-of-measure: "%"
  quantitative-result: 75

Each compound below has a reported value. Please supply its Population Mitochondria Different-Phenotype (%).
1. O=C1N/C(=N/c2ccccc2F)S/C1=C\c1ccc(C(=O)O)cc1
2. COc1cc(N2CCN(C)CC2)ccc1Nc1ncc2c(n1)N(C)c1ccccc1C(=O)N2C
3. COc1ccc(S(=O)(=O)N(CCO)c2ccccc2CN(C)C/C=C/c2ccc(Cl)cc2)cc1.O=P(O)(O)O

A:
6
93
18

====

Tested on: HEK-293T
test-method-notes: Multiplex assay against HEK293T
Format: toxicity, cell-based
experimental-setup: human, 12 h, 10 µM, compound concentration 10 uM, replicate 2
Is Population Mitochondria Different-Phenotype (%) at least 40%? Then satisfied. If not, not satisfied.

Example cases with answers are listed next.
- molecule: "O=C(Nc1ccc(Cl)cc1)Nc1cccc(-c2cccc(N3CCCC3)n2)c1"
  group-label: "not satisfied"
- molecule: "CCCS(=O)(=O)c1nc(NC2CC2)cc(-c2ccc3c(ccn3C3CC(C)(C)NC(C)(C)C3)c2)n1"
  group-label: "satisfied"

Q: Quick check: does O=C(Cc1ccc(-c2ccc(OCCN3CCOCC3)cc2)cn1)NCc1ccccc1 have Population Mitochondria Different-Phenotype (%) greater than or equal to 40%?
A: not satisfied

Q: Quick check: does S=C(NCCCc1c[nH]cn1)NCCCN(Cc1ccc(Cl)c(Cl)c1)c1ccc(Br)cn1 have Population Mitochondria Different-Phenotype (%) greater than or equal to 40%?
A: satisfied

Ref: ChEMBL document CHEMBL4689842
